Reported IC50 (PathHunter β-Arrestin, antagonist mode) values follow for various binders
molecular target: somatostatin receptor type 2 (SSTR2) (UniProt P30874 1-369); test: cell-based or functional assay
Sequence (P30874 whole entry): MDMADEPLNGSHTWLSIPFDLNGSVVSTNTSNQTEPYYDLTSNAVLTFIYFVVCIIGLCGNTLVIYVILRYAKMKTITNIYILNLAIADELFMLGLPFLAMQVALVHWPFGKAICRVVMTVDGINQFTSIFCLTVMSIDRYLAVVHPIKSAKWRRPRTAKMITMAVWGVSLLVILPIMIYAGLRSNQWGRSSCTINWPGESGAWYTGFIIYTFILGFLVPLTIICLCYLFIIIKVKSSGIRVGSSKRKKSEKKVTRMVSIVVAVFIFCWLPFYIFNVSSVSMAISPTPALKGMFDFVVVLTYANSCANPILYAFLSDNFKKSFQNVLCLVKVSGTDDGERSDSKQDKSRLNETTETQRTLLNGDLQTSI
Starred links: 1 amine or outer side, 2 acyl side, 3 side chain; linkers in the order of their positions; H or OH if unused. Positions of bridges follow the written chain, without caps; N, C: chain ends. Non-standard residues stand in square brackets, D forms with d. dPhe(4-CONH2) = NC(=O)c1ccc(C[C@@H](N)C(=O)O)cc1; dTyr(Me) = COc1ccc(C[C@@H](N[*:1])C(=O)[*:2])cc1; Phe(4-Cl) = N[C@@H](Cc1ccc(Cl)cc1)C(=O)O
State just the number; it will be interpreted in µM.

Example cases with answers are listed next.
binder="XXYXKTCX (HELM PEPTIDE1{[N[C@@H](Cc1ccc(Cl)cc1)C(=O)[*:2]].[dC].Y.[NC(=O)NCc1ccc(C[C@@H](N[*:1])C(=O)[*:2])cc1].K.T.C.[dY].[am]}$PEPTIDE1,PEPTIDE1,2:R3-7:R3$$$V2.0; SMILES C[C@@H](O)[C@@H]1NC(=O)[C@H](CCCCN)NC(=O)[C@@H](Cc2ccc(CNC(N)=O)cc2)NC(=O)[C@H](Cc2ccc(O)cc2)NC(=O)[C@H](NC(=O)[C@@H](N)Cc2ccc(Cl)cc2)CSSC[C@@H](C(=O)N[C@H](Cc2ccc(O)cc2)C(N)=O)NC1=O) [Compound 7: H-Cpa-cyclo[DCys-Tyr-D-(4-ureidomethyl)Phe-Lys-Thr-Cys]-DTyr-NH2]" units_symbol=µM number=0.031
binder="XXFXKTCX (HELM PEPTIDE1{[N[C@@H](Cc1ccc(Cl)cc1)C(=O)[*:2]].[dC].F.[NC(=O)c1ccc(C[C@@H](N[*:1])C(=O)[*:2])cc1].K.T.C.[dF].[am]}$PEPTIDE1,PEPTIDE1,2:R3-7:R3$$$V2.0; SMILES C[C@@H](O)[C@@H]1NC(=O)[C@H](CCCCN)NC(=O)[C@@H](Cc2ccc(C(N)=O)cc2)NC(=O)[C@H](Cc2ccccc2)NC(=O)[C@H](NC(=O)[C@@H](N)Cc2ccc(Cl)cc2)CSSC[C@@H](C(=O)N[C@H](Cc2ccccc2)C(N)=O)NC1=O) [Compound 41: H-Cpa-cyclo[DCys-Phe-D-(4-carbamoyl)Phe-Lys-Thr-Cys]-DPhe-NH2]" units_symbol=µM number=0.0244
binder="H-[Phe(4-Cl)][dC]Y[dPhe(4-CONH2)]KTC[dTyr(Me)]-NH2 (disulfide 2-7; SMILES COc1ccc(C[C@@H](NC(=O)[C@@H]2CSSC[C@@H](NC(=O)[C@@H](N)Cc3ccc(Cl)cc3)C(=O)N[C@@H](Cc3ccc(O)cc3)C(=O)N[C@H](Cc3ccc(C(N)=O)cc3)C(=O)N[C@@H](CCCCN)C(=O)N[C@@H]([C@@H](C)O)C(=O)N2)C(N)=O)cc1) [Compound 44: H-Cpa-cyclo[DCys-Tyr-D-(4-carbamoyl)Phe-Lys-Thr-Cys]-4-OMe-D-Phe-NH2]" units_symbol=µM number=0.0107

Pending binder:
Input: Entry H-[Phe(4-Cl)][dC]Y[dHoCit]KTC[dY]-NH2 (disulfide 2-7) [Compound 2: H-Cpa-cyclo[DCys-Tyr-DHoCit-Lys-Thr-Cys]-DTyr-NH2] needs its IC50 (PathHunter β-Arrestin, antagonist mode) filled in; supply it.
Output: 0.181
